assayComment: NCI Yeast Anticancer Drug Screen. Data for the sgs1 mgt1 strain (AID 161);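 further: 0% = growth of cultures given vehicle only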
testConditions: S. cerevisiae sgs1 mgt1 strain, at 50.0 µM, active compounds read high
The panel holds about 79,000 compounds, 15% with a hit somewhere; the sample as a whole holds those more often.
Reported growth inhibition by item:
Provide the reading as a plain figure in %.

A selection of reference data follows.
> print(dat)
                                   compound  reportedvalue
1  Nc1ncc(Cl)c(NCC2(CO)CC(CCc3ccccc3)C2)n1 (configuration not stated)          -11.6
2          Cc1ccc2cccc(-c3cccc4ccccc34)c2n1            3.4

Which growth inhibition is reported for this compound? NCCCc1ccc(C(=O)O)cc1
-0.5

What do you get for CC(=O)N(C)c1cccc2ccccc12 ?
9.85

What do you get for O=C(NC1c2ccccc2Oc2ccccc21)OCCCCl ?
2.15

What do you get for NC(=O)C(CC(C(N)=O)C(N)=O)C(N)=O ?
-8.45

What do you get for Cn1c(=O)c2c3ccccc3c(C(=O)c3ccccc3)n2c2ccccc21 ?
27.4

What do you get for O=C(O)c1cc(-c2ccccc2Cl)nc2ccccc12 ?
-8.3

What do you get for S=C1NNC2(C(=S)N1)c1ccccc1-c1ccccc12 ?
14.6

What do you get for CCOC(=O)Nc1ccc(C2SCCN2C(=O)Nc2ccc(Cl)cc2)cc1 (configuration not stated) ?
-9.45

What do you get for c1ccc2c(c1)ccc1c2c[n+](CCCCCCCC[n+]2cc3c4ccccc4ccc3c3ccccc32)c2ccccc12 ?
87.5

What do you get for COC1(OC)CC2OC1C1N=NN(C(=O)OC(C)(C)C)C21 (configuration not stated) ?
6.8
